Target of assay: human DR5 (human)
Assay remarks: SPR (BIAcore X100), human DR5 on CM5 chip, IgG injected, 1:1 Langmuir model
I'd be grateful if you could share measured kon for these entries.
One number for each entry, in M⁻¹ s⁻¹.

Record excerpt, results attached:
INSERT INTO results (binder, unit_label, quantitative_result) VALUES
  ('DA25 (antibody, V domains shown) VH: AVTLDESGGGLQTPGGGLSLVCKGSGFTFSSFNMLWVRQAPGKGLEWVAGIGKSDRYTGYGSAVKGRATISRDDGQSTVYLQMNSLRAEDTGTYYCVKDAGSGCGSGGWTGACIDTWGHGTEVIVSS VL: LTQPSSVSANLGGTVEITCSGGDSYAGSYYYGWYQQKAPGSAPVTVIYNNNNRPSNIPSRFSGSTSGSTATLTITGVQAEDEAVYFCGSRDSSYVGIFGAGTTLTVL', 'M⁻¹ s⁻¹', '1.05e+06'),
  ('DA3 (antibody, V domains shown) VH: EVQLVESGGGLVQPGGSLRLSCAASGFTFSSFNMLWVRQAPGKGLEWVAGIGKSDRYTGYGSAVKGRFTISRDTSKSTVYLQMNSLRAEDTAVYYCVRDAGSGCGSGGWTGACIDTWGQGTLVTVSS VL: DIQMTQSPSSLSASVGDRVTITCSGGDSYAGSYYYGWYQQKPGKAPKTLIYNNNNRPSGVPSRFSGSTSGTDFTLTISSLQPEDFATYYCGSRDSSYVGIFGQGTKVEIK', 'M⁻¹ s⁻¹', '4.9e+06'),
  ('DA1 (antibody, V domains shown) VH: EVQLVESGGGLVQPGGSLRLSCAASGFTFSSFNMLWVRQAPGKGLEWVAGIGKSDRYTGYGSAVKGRFTISRDDSKSTVYLQMNSLRAEDTAVYYCVRDAGSGCGSGGWTGACIDTWGQGTLVTVSS VL: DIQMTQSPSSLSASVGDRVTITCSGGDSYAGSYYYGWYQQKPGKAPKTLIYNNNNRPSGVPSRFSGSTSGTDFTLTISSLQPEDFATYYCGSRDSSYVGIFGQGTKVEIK', 'M⁻¹ s⁻¹', '4.9e+06'),
  ('DA7 (antibody, V domains shown) VH: EVQLVESGGGLVQPGGSLRLSCAASGFTFSSFNMLWVRQAPGKGLEWVAGIGKSDRYTGYGSAVKGRFTISRDDSKSTVYLQMNSLRAEDTAVYYCSRDAGSGCGSGGWTGACIDTWGQGTLVTVSS VL: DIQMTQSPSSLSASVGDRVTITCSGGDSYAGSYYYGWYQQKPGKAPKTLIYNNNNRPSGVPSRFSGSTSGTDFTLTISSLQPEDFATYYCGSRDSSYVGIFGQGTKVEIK', 'M⁻¹ s⁻¹', '1.4e+06'),
  ('DA18 (antibody, V domains shown) VH: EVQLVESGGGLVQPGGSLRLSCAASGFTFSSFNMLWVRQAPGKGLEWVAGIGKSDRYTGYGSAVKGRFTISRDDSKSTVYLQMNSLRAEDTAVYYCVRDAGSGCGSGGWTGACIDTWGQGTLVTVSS VL: DIQMTQSPSSLSASVGDRVTITCSGGDSYAGSYYYGWYQQKPGKAPKTLIYNNNNRPSGVPSRFSGSRSGTDFTLTISSLQPEDFATYYCGSRDSDGGGRFGQGTKVEIK', 'M⁻¹ s⁻¹', '1.33e+06');

Please give kon for each item listed below.
1. DA22 (antibody, V domains shown) VH: EVQLVESGGGLVQPGGSLRLSCAASGFTFSSFNMLWVRQAPGKGLEWVAGIGKSDRYTGYGSAVKGRFTISRDDSKSTVYLQMNSLRAEDTAVYYCVRDAGSPCGSGGWTGACIDTWGQGTLVTVSS VL: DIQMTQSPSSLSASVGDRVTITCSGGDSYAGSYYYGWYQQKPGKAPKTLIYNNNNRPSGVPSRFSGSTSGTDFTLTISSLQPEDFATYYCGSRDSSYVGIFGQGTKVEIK
2. DA20 (antibody, V domains shown) VH: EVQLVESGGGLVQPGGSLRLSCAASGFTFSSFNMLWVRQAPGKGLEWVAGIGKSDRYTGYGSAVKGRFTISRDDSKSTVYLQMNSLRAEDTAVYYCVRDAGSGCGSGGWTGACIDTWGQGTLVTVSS VL: DIQMTQSPSSLSASVGDRVTITCSGGDSYAGSYYYGWYQQKPGKAPKTLIYNNNNRPSGVPSRFSGSRSGTDFTLTISSLQPEDFATYYCGSRDSAGMGAFGQGTKVEIK
3. DA21 (antibody, V domains shown) VH: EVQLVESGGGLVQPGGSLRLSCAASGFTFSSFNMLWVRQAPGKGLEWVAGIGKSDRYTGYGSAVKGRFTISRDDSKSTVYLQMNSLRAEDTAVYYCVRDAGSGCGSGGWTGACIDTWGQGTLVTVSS VL: DIQMTQSPSSLSASVGDRVTITCSGGDSYAGSYYYGWYQQKPGKAPKTLIYNNNNRPSGVPSRFSGSRSGTDFTLTISSLQPEDFATYYCGSRDSSGAGGFGQGTKVEIK
4. DA30 (antibody, V domains shown) VH: AVTLDESGGGLQTPGGGLSLVCKGSGFTFSSFNMLWVRQAPGKGLEWVAGIGKSDRYTGYGSAVKGRATISRDDGQSTAYLQMNSLRAEDTGTYYCVKDAGSGCGSGGWTGACIDTWGHGTEVIVSS VL: LTQPSSVSANLGGTVEITCSGGDSYAGSYYYGWYQQKAPGSAPVTVIYNNNNRPSNIPSRFSGSTSGSTATLTITGVQAEDEATYYCGSRDSSYVGIFGAGTTLTVL
5. DA35 (antibody, V domains shown) VH: AVTLDESGGGLQTPGGGLSLVCKGSGFTFSSFNMLWVRQAPGKGLEWVAGIGKSDRYTGYGSAVKGRATISRDDGQSTARLQMNSLRAEDTAVYYCVKDAGSGCGSGGWTGACIDTWGHGTEVIVSS VL: LTQPSSVSANLGGTVEITCSGGDSYAGSYYYGWYQQKAPGSAPVTVIYNNNNRPSNIPSRFSGSTSGSTATLTITGVQAEDEATYFCGSRDSSYVGIFGAGTTLTVL

Found:
[932000, "1e+06", "1.11e+06", "1.03e+06", "1.13e+06"]
